# TESTED SYSTEM: T1, GST–PPARα fusion protein (purified ligand binding domain of PPARα)
# T1 sequence (Q07869 whole entry, species assumed, looked up): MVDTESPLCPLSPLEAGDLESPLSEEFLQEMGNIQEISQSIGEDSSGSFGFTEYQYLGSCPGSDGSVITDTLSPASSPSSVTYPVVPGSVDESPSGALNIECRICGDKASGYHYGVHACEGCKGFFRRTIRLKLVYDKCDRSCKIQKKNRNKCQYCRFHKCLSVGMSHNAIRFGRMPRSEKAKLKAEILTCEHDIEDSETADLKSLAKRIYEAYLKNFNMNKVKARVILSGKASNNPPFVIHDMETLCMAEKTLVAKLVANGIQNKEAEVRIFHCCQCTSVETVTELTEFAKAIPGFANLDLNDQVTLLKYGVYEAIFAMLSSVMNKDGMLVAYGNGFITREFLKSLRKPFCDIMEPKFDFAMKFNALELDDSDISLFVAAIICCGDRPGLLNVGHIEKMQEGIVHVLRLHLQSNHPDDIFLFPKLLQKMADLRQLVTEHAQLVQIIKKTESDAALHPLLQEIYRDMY
# MEASUREMENT PROTOCOL: FRET or BRET; homogeneous TR-FRET as a1, 12-concentration dose–response of RO4899100; the EC50 is of the compound; delta ratio in % of the reference compound at 10 μM (RO4899100 for PPARα, edaglitazone for PPARγ)
Where no end group is shown, it is not given here. The star is where a group is joined. Biotin = O=C1N[C@H]2[C@H](CS[C@H]2CCCCC(=O)*)N1; Ahx = NCCCCCC(=O)O
ASSAY METRIC: EC50 of RO4899100 for recruitment (nM)
Numbers only, in nM.

Look over these answered cases.
BINDER: {Biotin-Ahx}-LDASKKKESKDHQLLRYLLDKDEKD (source: synthetic peptide (Jerini or Biosynthan, Berlin)) [SRC1_M3 cofactor peptide (steroid receptor co-activator 1, motif 3)]
ASSAY METRIC: EC50 of RO4899100 for recruitment
SCALE UNIT: nM
OBSERVED RESULT: 4.9
--
BINDER: {Biotin-Ahx}-SRLHDSKGQTKLLQLLTTKSD (transcriptional intermediary factor 2 (TIF2), motif 1, residues 630-650; source: synthetic peptide (Jerini or Biosynthan, Berlin)) [TIF2_M1 cofactor peptide (transcriptional intermediary factor 2, motif 1)]
ASSAY METRIC: EC50 of RO4899100 for recruitment
SCALE UNIT: nM
OBSERVED RESULT: 8.6
--
BINDER: {Biotin-Ahx}-SPKKKENALLRYLLDKDDTK [TIF2_M3 cofactor peptide (transcriptional intermediary factor 2, motif 3)]
ASSAY METRIC: EC50 of RO4899100 for recruitment
SCALE UNIT: nM
OBSERVED RESULT: 12.7
--
BINDER: {Biotin-Ahx}-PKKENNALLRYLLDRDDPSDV (source: synthetic peptide (Jerini or Biosynthan, Berlin)) [RAC3_M3 cofactor peptide (receptor-associated co-activator 3, motif 3)]
ASSAY METRIC: EC50 of RO4899100 for recruitment
SCALE UNIT: nM
OBSERVED RESULT: 25.9
--
BINDER: {Biotin-Ahx}-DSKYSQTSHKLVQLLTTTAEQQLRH (source: synthetic peptide (Jerini or Biosynthan, Berlin)) [SRC1_M1 cofactor peptide (steroid receptor co-activator 1, motif 1)]
ASSAY METRIC: EC50 of RO4899100 for recruitment
SCALE UNIT: nM
OBSERVED RESULT: 16.1

Please turn your attention to the following entry.
Reported EC50 of RO4899100 for recruitment ( {Biotin-Ahx}-STHGTSLKEKHKILHRLLQDS [TIF2_M2 cofactor peptide (transcriptional intermediary factor 2, motif 2)] ) = 5.9
